Assay: NCI Yeast Anticancer Drug Screen. Data for the cln2 rad14 strain (AID 165);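 note: 0% = growth equal to vehicle treated cultures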
Details: S. cerevisiae cln2 rad14 strain, at 50.0 µM (retest, dose inferred, filed as 5.0), active compounds read high
Description: Growth inhibition of yeast strains with defined genetic alterations is measured as a screen for potential anti-cancer activity. Selected strains with alterations in DNA damage repair or cell cycle control were exposed to compounds and growth inhibition was measured relative to vehicle treated controls. The strain used in this assay is cln2 rad14
The panel holds about 79,000 compounds, 15% with a hit somewhere; the sample as a whole holds those more often.
ATTRIBUTE MEASURED: growth inhibition (%)

[[record]]
molecule = "COc1ccc2c(c1)C1(C)CCCC(C)(C(=O)O)C1C(Br)C2=O (centres undefined)"
reported_result = 96

[[record]]
molecule = "O=C(Nc1ccccc1Cl)c1cccnc1"
reported_result = -63

[[record]]
molecule = "O=C1C=C(Cl)C(=O)C2=C1CCCC2"
reported_result = 48

[[record]]
molecule = "CCCCCCCCCCCCCCCC[N+](C)(C)CCl"
reported_result = 99

[[record]]
molecule = "COc1cc(C(=O)C=[N+]=[N-])c([N+](=O)[O-])c(OC)c1OC"
reported_result = 51

[[record]]
molecule = "O=c1c2ccccc2sc2c(CO)ccc(NCCN3CCCCC3)c12"
reported_result = 13

[[record]]
molecule = "S=C1NC2=C(CSC/C2=C\\c2cccc(Br)c2)C(c2cccc(Br)c2)N1 (centres undefined)"
reported_result = 96

[[record]]
molecule = "C(=C\\N1CCCCC1)/c1nnnn1-c1ccccc1"
reported_result = -22

[[record]]
molecule = "O=[N+]([O-])c1cccc(S(=O)(=O)Cl)c1"
reported_result = 0

[[record]]
molecule = "Cc1cccc(Cl)c1NC(=O)/C=C/c1ccccc1"
reported_result = 6

[[record]]
molecule = "CCSSC12CCCN1C(=O)C(C)N(C)C2=O (centres undefined)"
reported_result = 58

[[record]]
molecule = "C=C1C(O)C2(O)OCC34C(CC5C(C)=CC(=O)C(O)C5(C)C23)OC(=O)C(OC(=O)C/C=C(\\C)CCCCC)C14 (centres undefined)"
reported_result = 98

[[record]]
molecule = "Nc1ccc(CCCCCc2ccc(N)cc2)cc1"
reported_result = 54

[[record]]
molecule = "N#CC1C2CCC3(CC2CCN1C(=O)c1ccccc1)OCCO3 (centres undefined)"
reported_result = 78

[[record]]
molecule = "Oc1ccc(CNC2CCCCC2)cc1"
reported_result = -11

[[record]]
molecule = "O=NNc1ccc(Sc2ccc3ccccc3c2)cn1"
reported_result = 43

[[record]]
molecule = "O=Cc1c(Cn2ccnc2)c2cc([N+](=O)[O-])ccc2n1Cc1ccccc1"
reported_result = -17

[[record]]
molecule = "O=C(c1c(F)c(F)c(F)c(F)c1F)N1CCN(C(=O)c2c(F)c(F)c(F)c(F)c2F)C1=S"
reported_result = 88

[[record]]
molecule = "Oc1cc2c(cc1C(c1ccc(F)cc1)N1CCCCC1)OCO2 (centres undefined)"
reported_result = 39

[[record]]
molecule = "C[Si](C)c1cccc(Cl)c1"
reported_result = 6

[[record]]
molecule = "CC(Nc1ccc(Cl)c(Cl)c1)c1ccncc1 (centres undefined)"
reported_result = 98

[[record]]
molecule = "COc1ccc2c(C)cc(N/N=C/c3cccc(C)n3)nc2c1"
reported_result = 5

[[record]]
molecule = "CCc1cccc(C)c1NC(=O)/C(Cl)=C(\\Cl)C(=O)O"
reported_result = 99

[[record]]
molecule = "CC(C)(C)c1c2c(c(C(C)(C)C)c3c1OCN(Cc1ccccc1)C3)OCN(Cc1ccccc1)C2"
reported_result = -38

[[record]]
molecule = "COc1ccccc1/C=C1\\NC(=S)N(/C=C2\\C(=O)Oc3ccccc3C2=O)C1=O"
reported_result = 47

[[record]]
molecule = "CN(C)CCCNc1cc(/C=C/c2ccc([N+](=O)[O-])cc2)nc2ccccc12"
reported_result = 64

[[record]]
molecule = "Cc1ccc2c(c1)-c1c(c3c(c4c1-c1cc(C)ccc1CC4)C(=O)OC3=O)CC2"
reported_result = 41

[[record]]
molecule = "CCOc1nc(N)nc(C)c1N=Nc1ccc(Cl)cc1Cl"
reported_result = 77

[[record]]
molecule = "Cc1ccc(NC(=O)Cc2nc3ccccc3s2)c(C)c1"
reported_result = 91

[[record]]
molecule = "Oc1ccc2cc(Br)ccc2c1"
reported_result = 98

[[record]]
molecule = "C=C1C(=O)C23CC[C@H]4C(C)(CCC[C@]4(C)C(=O)O)[C@@H]2CCC1C3 (some centres undefined)"
reported_result = 99

[[record]]
molecule = "CC1CC(C)CC(C(O)(C(=O)O)C2CC(C)CC(C)C2)C1 (centres undefined)"
reported_result = 100

[[record]]
molecule = "CC(/C=C1\\CCC(CN(C)C)C1=O)c1cccc(Br)c1 (centres undefined)"
reported_result = 98

[[record]]
molecule = "c1ccc2nc3[nH]c4ccccc4c3cc2c1"
reported_result = 39

[[record]]
molecule = "CCc1cccc(CC)c1N=Nc1c(N)nc(N)[nH]c1=O"
reported_result = 2

[[record]]
molecule = "O=[N+]([O-])c1ccccc1SCc1ccccc1"
reported_result = 43

[[record]]
molecule = "CCCCCCCCCCCCCCNCCN"
reported_result = 97

[[record]]
molecule = "O=C(COc1ccc2ccccc2c1)NC1c2ccccc2Oc2ccccc21"
reported_result = 94

[[record]]
molecule = "O=C1C=CC(=O)c2c1cc1ccccc1c2O"
reported_result = 44

[[record]]
molecule = "Cn1c2c(c3ccccc31)CCN(CCCN1CCN(c3cccc(Cl)c3)CC1)C2=O"
reported_result = 11

[[record]]
molecule = "O=C1NC(Cc2ccccc2)C(=O)O1 (centres undefined)"
reported_result = 6

[[record]]
molecule = "O=S(=O)(O)CNc1cc(Cl)cc(Cl)c1"
reported_result = 16

[[record]]
molecule = "O=C1CSC(=S)N1c1ccc(F)cc1F"
reported_result = 16

[[record]]
molecule = "O=C1C(=O)c2ccccc2C(O)=C1C(c1ccccc1)c1ccccc1"
reported_result = 83

[[record]]
molecule = "O=[N+]([O-])c1cc(Cl)cc(C(c2cc(Cl)cc([N+](=O)[O-])c2O)C(Cl)(Cl)Cl)c1O"
reported_result = 96

[[record]]
molecule = "C=C1C2Oc3ccccc3C1N(c1ccccc1)O2 (centres undefined)"
reported_result = 24

[[record]]
molecule = "O=C(/C(=N/O)[n+]1ccccc1)c1ccccc1"
reported_result = -7

[[record]]
molecule = "CCOc1ccnc2c(C)c3c([nH]c4ccccc43)c(C)c12"
reported_result = 97

[[record]]
molecule = "CCNc1nc(C(F)(F)F)nc2nc[nH]c12"
reported_result = 0

